method summary: Half-lives and pharmacokinetic parameters of polypeptides vs HM-1
setup conditions: in vivo
Peptide text beside a SMILES is read from it. * marks the point of attachment. X41 = O=C1C=CC(=O)N1c1ccc(CCCCCCCCCCCCC(=O)*)cc1; X62 = O=C1C=CC(=O)N1CCCCCCCCCCCCC(=O)*; X50 = O=C1C=CC(=O)N1c1ccc(CC(=O)*)cc1
# MRT inf values compiled below
Reply with the number and its unit after it.

Use the examples below as a reference point.
molecule: C[C@H](NC(=O)CNC(=O)[C@H](CCCNC(=N)N)NC(=O)CCCCCCCCCCCCc1ccc(N2C(=O)C=CC2=O)cc1)C(=O)N[C@@H](CC(=O)O)C(=O)N[C@@H](CCCNC(=N)N)C(=O)N[C@@H](C)C(=O)NCC(=O)NCC(=O)NCC(=O)NCC(=O)N[C@@H](CCCNC(=N)N)C(=O)NCC(=O)N[C@@H](CC(=O)O)C(=O)O [X48] (X41-RGADRAGGGGRGD-OH)
measured attribute: MRT inf
result: 52.9 h

molecule: C[C@H](NC(=O)CNC(=O)[C@H](CCCNC(=N)N)NC(=O)Cc1ccc(N2C(=O)C=CC2=O)cc1)C(=O)N[C@@H](CC(=O)O)C(=O)N[C@@H](CCCNC(=N)N)C(=O)N[C@@H](C)C(=O)NCC(=O)NCC(=O)NCC(=O)NCC(=O)N[C@@H](CCCNC(=N)N)C(=O)NCC(=O)N[C@@H](CC(=O)O)C(=O)O [X37] (X50-RGADRAGGGGRGD-OH)
measured attribute: MRT inf
result: 48.7 h

Any idea what MRT inf was measured for C[C@H](NC(=O)CNC(=O)[C@H](CCCNC(=N)N)NC(=O)CCCCCCCCCCCCN1C(=O)C=CC1=O)C(=O)N[C@@H](CC(=O)O)C(=O)N[C@@H](CCCNC(=N)N)C(=O)N[C@@H](C)C(=O)NCC(=O)NCC(=O)NCC(=O)NCC(=O)N[C@@H](CCCNC(=N)N)C(=O)NCC(=O)N[C@@H](CC(=O)O)C(=O)O [X12] (X62-RGADRAGGGGRGD-OH) ?
52.2 h
